tested_system: purified human MAP4K4 kinase domain (Homo sapiens, UniProt O95819)
Construct: purified human MAP4K4 kinase domain
Sequence (O95819 25-289 limits assumed): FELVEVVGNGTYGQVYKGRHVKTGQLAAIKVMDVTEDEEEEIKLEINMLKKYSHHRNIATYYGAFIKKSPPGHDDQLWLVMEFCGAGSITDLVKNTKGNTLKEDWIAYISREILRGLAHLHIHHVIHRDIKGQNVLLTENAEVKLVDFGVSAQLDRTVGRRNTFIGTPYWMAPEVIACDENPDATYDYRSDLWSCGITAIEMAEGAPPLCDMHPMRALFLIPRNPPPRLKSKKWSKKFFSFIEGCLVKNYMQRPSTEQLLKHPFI
experimental_details: MAP4K4 Inhibition Assay Protocol No. 1 (Caliper LabChip, moesin-derived peptide phosphorylation)
Assay type: biochemical
experimental_parameters: Assay 1; 1 nM enzyme, 10 uM ATP, 45 min
property_name: IC50 (µM)

Solved entries:
Nc1ncc(C(=O)NC2COC2)c2ccc(-c3cccc(F)c3)cc12: 0.0454
CC(C)CNC(=O)c1cnc(N)c2cc(-c3cccc(F)c3)ccc12: 0.0335
Nc1ncc(C(=O)NC2CN(C(=O)C3CC3)C2)c2ccc(-c3cccc(F)c3)cc12: 0.0357
CN1CCN(CCNC(=O)c2cnc(N)c3cc(-c4cccc(F)c4)ccc23)CC1: 0.217

[I] CCNC(=O)c1cnc(N)c2cc(-c3cccc(F)c3)ccc12
[II] Nc1ncc(C(=O)NCCCN2CCOCC2)c2ccc(-c3cccc(F)c3)cc12
Prompt line: Consider I and II . Which of these has its IC50 at a higher number? Mark your answer with the label of the selected entry.
Response line: II

* * *

tested_system: purified human MAP4K4 kinase domain (Homo sapiens, UniProt O95819)
Construct: purified human MAP4K4 kinase domain
experimental_details: MAP4K4 Inhibition Assay Protocol No. 2 (Z'-LYTE FRET)
Assay type: biochemical
experimental_parameters: Assay 2; 1 nM enzyme, 10 uM ATP, 60 min
property_name: IC50 (µM)

The following molecules have reported results that may help.
CNC(=O)N1CCC(NC(=O)c2cnc(N)c3cc(-c4cccc(F)c4)ccc23)C1 (stereo not drawn) [Example 135]: 0.162
CCOC(=O)c1cnc(N)c2nc(-c3cccc(OC(F)(F)F)c3)ccc12 [Example 139]: 0.00216
CN1CC(NC(=O)c2cnc(N)c3cc(-c4cccc(F)c4)ccc23)C1 [Example 7]: 0.776
Nc1ncc(CNC(=O)C2CC2)c2ccc(-c3cccc(F)c3)cc12 [Example 6]: 0.0294
CCNC(=O)N1CC(NC(=O)c2cnc(N)c3cc(-c4cccc(F)c4)ccc23)C1 [Example 131]: 0.174
CCOC(=O)c1cnc(N)c2nc(-c3ccc(OC)cc3Cl)ccc12 [Example 155]: 0.134
CNCc1cnc(N)c2cc(-c3cccc(F)c3)ccc12 [Example 129]: 3
Nc1ncc(C(=O)N2CC(NC(=O)C3CC3)C2)c2ccc(-c3cccc(F)c3)nc12 [Example 30]: 0.0139

[1] CCNC(=O)NCC(CO)NC(=O)c1cnc(N)c2cc(-c3cccc(F)c3)ccc12 (stereo not drawn) [Example 133]
[2] CS(=O)(=O)N1CC(NC(=O)c2cnc(N)c3nc(-c4cccc(F)c4)ccc23)C1 [Example 18]
[3] Nc1ncc(C(=O)NC2CN(C(=O)CN3CCOCC3)C2)c2ccc(-c3cccc(F)c3)nc12 [Example 20]
[4] CCOC(=O)c1cnc(N)c2nc(-c3ccnc(C)c3)ccc12 [Example 141]
[5] CCOC(=O)c1cnc(N)c2nc(-c3cccc(S(C)(=O)=O)c3)ccc12 [Example 143]
Prompt line: Hello, I need these entries ordered by IC50, highest reading first. Thanks! A ranking is expressed here by listing the labels in the requested order.
Response line: 1, 5, 2, 3, 4

* * *

tested_system: purified human MAP4K4 kinase domain (Homo sapiens, UniProt O95819)
Construct: purified human MAP4K4 kinase domain
experimental_details: MAP4K4 Inhibition Assay Protocol No. 1 (Caliper LabChip, moesin-derived peptide phosphorylation)
Format: biochemical
experimental_parameters: Assay 1; 1 nM enzyme, 10 uM ATP, 45 min
property_name: IC50 (µM)

CNC(=O)C1CN(C(=O)c2cnc(N)c3cc(-c4cccc(F)c4)ccc23)CCO1 (stereo not drawn) [Example 60]: 0.238
Nc1ncc(CNC(=O)C2CC2)c2ccc(-c3cccc(F)c3)cc12 [Example 6]: 0.0414
Nc1ncc(C(=O)NCc2ccncc2)c2ccc(-c3cccc(F)c3)cc12 [Example 93]: 0.0645
Nc1ncc(C(=O)O)c2ccc(-c3cccc(F)c3)cc12 [Example 123]: 2.1
CC(=O)N1CC(NC(=O)c2cnc(N)c3cc(-c4cccc(F)c4)ccc23)C1 [Example 9]: 0.0506

[1] Nc1ncc(C(=O)NCCO)c2ccc(-c3cccc(F)c3)cc12 [Example 109]
[2] Nc1ncc(C(=O)NCCN2CCNC2=O)c2ccc(-c3cccc(F)c3)cc12 [Example 82]
Prompt line: Which value of IC50 is greater, the one for 1 or the one for 2 ? // output: label of the selected item
Response line: 2
(2: 0.148 µM, 1: 0.0774 µM)
